Tested on: HCT-116 colon
Assay: NCI tumour cell line growth inhibition, 48 h; in the data active = GI50 below about 0.43 µM; inactive = the rest
# output must be one of active, inactive

Would you please look over these solved cases?
molecule=COc1ccc2c(c1)C(=O)c1c-2n(CCCN=[N+]=[N-])c(=O)c2cc(N)ccc12 label_value=inactive
molecule=CC(C)c1ccc(/C=N/N=C(N)N)cc1 label_value=inactive
molecule=Cn1ccc2c3c(=O)cc[nH]c3ccc21 label_value=inactive
molecule=Clc1ccc(N/N=C(\c2ccccc2)c2ccccn2)nc1 label_value=active
molecule=C=C(CN(C)Cc1ccccc1)c1ccc(C(=O)Nc2ccccc2N)cc1 label_value=inactive
molecule="COc1ccc(C2SCC(=O)N2NC(=O)C(O)c2ccccc2)cc1 (stereo not drawn)" label_value=inactive

I'd appreciate the recorded outcome for CNC12C3C4C1C1C2C3C41C(=O)N[C@H](C(=O)N(C)[C@H](C[C@@H](OC(C)=O)c1nc(C(=O)N[C@@H](Cc2ccccc2)C[C@H](C)C(=O)OC)cs1)C(C)C)C1CC1 (stereo partly drawn) from this test.
active

Try O=C1Nc2ccc(CN3CCOC3=O)cc2/C1=C/c1cc(CN2CCOCC2)c[nH]1 next.
inactive

====

Test system: HS 578T breast
Experiment: NCI tumour cell line growth inhibition, 48 h
Each record here notes measured TGI.

The cases that follow already have their TGI on record.
given_smiles=CC(=O)c1c2c(cc3c1CC1(C3)Cc3cc4c(c(C(C)=O)c3C1)CCCC4)CCCC2 reported_metric=TGI endpoint_value="> 100 µM"
given_smiles=Cc1ccc(C2=Nn3c(nc4sc5c(c4c3=O)CCCC5)SC2)cc1 reported_metric=TGI endpoint_value="> 100 µM"

Now look at this one.
# returns recorded TGI (system: HS 578T breast) for Cn1c(-c2cccs2)cc(-c2ccsc2)c1-c1cccs1
> 100 µM

====

System: K-562 leukemia
# output must be one of true (active), false (inactive)

Would you please look over these solved cases?
molecule=c1ccc2c(-c3cnn4cc(-c5ccc(N6CCNCC6)cc5)cnc34)ccnc2c1 target_system="K-562 leukemia" label_value=true
molecule=Cc1nc2ccccc2c(/C=C/c2ccccc2)c1C(=O)/C=C/c1ccc(Cl)cc1 target_system="K-562 leukemia" label_value=false
molecule="CC(=O)[O][Hg][CH2]C1(C)COC(C)([CH2][Hg][O]C(C)=O)CO1 (configuration not stated)" target_system="K-562 leukemia" label_value=false
molecule=C=C(CN(C)Cc1ccccc1)c1ccc(C(=O)Nc2ccccc2N)cc1 target_system="K-562 leukemia" label_value=false
molecule=COc1ccc2c(c1)C(=O)c1c-2n(CCCN=[N+]=[N-])c(=O)c2cc(N)ccc12 target_system="K-562 leukemia" label_value=false
molecule=CCCCCCCCc1ccc(CCC(N)(CO)CO)cc1 target_system="K-562 leukemia" label_value=false

Field: next molecule
I'd appreciate the recorded outcome for OCC#CCCCCOCC#Cc1ccccc1C#CCOCCCCC#CCO from this test.
false

====

System: CCRF-CEM leukemia
Assay: NCI tumour cell line growth inhibition, 48 h
REPORTED METRIC: TGI

The cases that follow already have their TGI on record.
compound=CC(=O)[C@]12OC(=O)C3=C1[C@H](CC[C@@H]3C)[C@@H](C)C[C@H]2C=C(C)C reported_metric=TGI endpoint_value="22.6 µM"
compound=Cc1ccc(/C=C2\CCCCCC2=O)cc1 reported_metric=TGI endpoint_value="> 100 µM"
compound="C=CCN1C(=O)/C(=C/c2ccc(OC)cc2)N=C1SC1OC(COC(C)=O)C(OC(C)=O)C(OC(C)=O)C1OC(C)=O (configuration not stated)" reported_metric=TGI endpoint_value="> 100 µM"
compound=O=[N+]([O-])c1cc(Cl)ccc1S(=O)(=O)c1ccc(Cl)cc1[N+](=O)[O-] reported_metric=TGI endpoint_value="> 100 µM"
compound="C=C1C(=O)OC2/C=C(\\C)CC/C=C(\\C)CC(OC(=O)/C(=C/CO)CO)[C@@H]12 (some centres not stated)" reported_metric=TGI endpoint_value="6.75 µM"
compound=CCP(C)(C)=O reported_metric=TGI endpoint_value="> 100 µM"
compound=COc1ccc(C(=O)C/C(=N/NC(N)=S)C(=O)Nc2ccccc2)cc1 reported_metric=TGI endpoint_value="> 100 µM"
compound=O=C(c1ccccc1)c1ccc(O)c2ncccc12 reported_metric=TGI endpoint_value="> 100 µM"
compound=CN(C)CCC(/C=C/c1ccccc1)=N\Nc1ccc(Cl)cc1 reported_metric=TGI endpoint_value="11 µM"
compound=Cc1ccc2nc(-c3ccc(-c4nc5ccc(C)cc5o4)c(O)c3)oc2c1 reported_metric=TGI endpoint_value="> 100 µM"

Given the compound Clc1ccc(-c2nc(C(Cl)Cl)nc3cc(-c4ccccc4)nn23)cc1 , what is its reported TGI?
> 50 µM

Try Nc1cc(N)cc(Cc2ccccc2)c1 next.
> 100 µM

Try C[CH2][Ge]([CH2]C)([CH2]C)[O]C(=O)C([O][Ge]([CH2]C)([CH2]C)[CH2]C)c1ccccc1 (configuration not stated) next.
> 100 µM

Try COC1C(O)CC(OC2CC(OC3CC(O[C@@H]4C(=O)c5c(cc6cc(OC7CC(OC8CC(O)C(O)C(C)O8)C(O)C(C)O7)c(C)c(O)c6c5O)C[C@H]4[C@H](OC)C(=O)[C@@H](O)[C@@H](C)O)OC(C)C3O)OC(C)C2O)OC1C (some centres not stated) next.
> 100 µM

Try CN(C(=O)c1cc2c(s1)sc1c(=O)n(C)c3ccccc3c12)c1ccccc1 next.
> 100 µM

Try COc1ccc(-c2cc(=O)c3ccc(F)cc3[nH]2)cc1 next.
> 100 µM

Try COC(=O)/C=C1/OC(c2ccc(C)cc2C)=CC1=O next.
> 100 µM

====

Each record here notes measured TGI.
Test system: KM12 colon
Assay: NCI tumour cell line growth inhibition, 48 h

The cases that follow already have their TGI on record.
molecule=O=c1[nH]c2cc3[nH]c(=O)c(=O)[nH]c3cc2[nH]c1=O endpoint_value="> 100 µM"
molecule="C=CCN(N=O)C(=O)N(CCCCC(NC(C)=O)C(=O)NCc1ccccc1)Cc1ccccc1 (centres undefined)" endpoint_value="> 100 µM"
molecule=OCc1ncc(-c2ccccc2)s1 endpoint_value="> 100 µM"
molecule=O=C(NCCNC(=O)c1ccc(F)cc1)Nc1ccc(-n2cc(-c3ccncc3)c(-c3ccc(Cl)c(O)c3)n2)cc1 endpoint_value="2.28 µM"
molecule="CN1C(=O)C(C#N)C2C[C@@]1(C)Oc1ccccc12 (some centres undefined)" endpoint_value="> 100 µM"
molecule="Oc1cc2c(cc1C(c1ccc3c(c1)OCO3)N1CCN(C(c3ccc4c(c3)OCO4)c3cc4c(cc3O)OCO4)CC1)OCO2 (centres undefined)" endpoint_value="30.8 µM"
molecule="CC(C(=O)O)C1Nc2ccccc2NC1=O (centres undefined)" endpoint_value="> 100 µM"
molecule=Cc1cccc2c(N=Nc3ccccc3[N+](=O)[O-])c(O)[nH]c12 endpoint_value="> 58.6 µM"

Now look at this one.
Given the molecule CCOC(=O)Nc1ccc(C(=O)/C=C/c2ccccc2)cc1 , what is its reported TGI?
17.6 µM

====

Each record here notes measured TGI.
Test system: HCT-116 colon
Experiment: NCI tumour cell line growth inhibition, 48 h

given_smiles=[O-]/[N+](=N/c1ncc(-c2ccccc2)cn1)c1ncc(-c2ccccc2)cn1 reported_metric=TGI endpoint_value="> 100 µM"

# returns recorded TGI (system: HCT-116 colon) for Cc1ccc2nc(-c3ccc(-c4nc5ccc(C)cc5o4)c(O)c3)oc2c1
> 100 µM

Try C/C(CC(=O)Nc1ccccc1)=N\NC(N)=S next.
> 100 µM

====

Test system: DMS 273 small cell lung
Test: NCI tumour cell line growth inhibition, 48 h
REPORTED METRIC: TGI

Given the molecule Cc1nnc2n1N=C(c1ccc(-c3ccc([N+](=O)[O-])cc3)o1)CS2 , what is its reported TGI?
> 100 µM

Try O=[N+]([O-])c1ccc2nc3ccscc-3c2c1 next.
> 100 µM

Try CC1(C)Cc2nnsc2C2=C1C(=O)CCS2 next.
> 100 µM

====

Tested on: SF-268 CNS
Assay: NCI tumour cell line growth inhibition, 48 h
REPORTED METRIC: TGI

molecule="CC(=O)c1c(C)cc2cccc(OC3OC(CO)C(O)C(O)C3O)c2c1O (stereo unspecified) (tested in a mixture with another compound)" endpoint_value="> 100 µM"
molecule=O=C(NCCNC(=O)c1ccc(F)cc1)Nc1ccc(-n2cc(-c3ccncc3)c(-c3ccc(Cl)c(O)c3)n2)cc1 endpoint_value="7.33 µM"
molecule=COc1ccc(C(=O)C/C(=N/NC(N)=S)C(=O)Nc2ccccc2)cc1 endpoint_value="> 100 µM"
molecule="O=C(CSc1nc2ccc(I)cc2c(=O)n1Cc1ccccc1)NN1C(=O)CSC1c1ccccc1 (stereo unspecified)" endpoint_value="79.1 µM"

Now look at this one.
Given the molecule C=C1C(=O)OC2/C=C(\C)CC/C=C(\C)CC(OC(=O)/C(=C/CO)CO)[C@@H]12 (stereo partly specified) , what is its reported TGI?
45 µM
